Field: koff. Provide a value for each of the binders that follow.
Molecular target: T1, murine GPC3-His protein (murine, UniProt Q8CFZ4 25-558, limits assumed)
T1 construct: bought protein; also called murine GPC3 protein
T1 sequence (Q8CFZ4 25-558 limits assumed): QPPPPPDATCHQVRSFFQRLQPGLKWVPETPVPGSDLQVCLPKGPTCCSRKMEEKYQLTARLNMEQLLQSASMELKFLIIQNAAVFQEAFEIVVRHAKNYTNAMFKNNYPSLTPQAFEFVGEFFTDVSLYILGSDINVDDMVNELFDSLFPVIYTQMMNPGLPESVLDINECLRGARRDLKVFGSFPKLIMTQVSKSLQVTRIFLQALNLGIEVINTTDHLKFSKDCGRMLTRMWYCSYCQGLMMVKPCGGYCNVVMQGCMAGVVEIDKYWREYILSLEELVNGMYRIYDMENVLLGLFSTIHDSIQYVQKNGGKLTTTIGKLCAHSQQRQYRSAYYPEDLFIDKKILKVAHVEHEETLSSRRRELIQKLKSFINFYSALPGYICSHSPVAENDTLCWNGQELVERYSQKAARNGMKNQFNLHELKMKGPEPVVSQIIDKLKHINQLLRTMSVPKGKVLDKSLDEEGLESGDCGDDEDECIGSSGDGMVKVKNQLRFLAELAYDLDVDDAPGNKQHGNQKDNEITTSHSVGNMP
Assay: SPR, antibody captured on Protein A chip, murine GPC3-His injected
One number for each entry, in s⁻¹.

Known koff results, listed for orientation:
BINDER	QUANTITY UNIT	koff
F1.145.22 (antibody, human IgG1, kappa, V domains shown, human-murine chimeric antibody) VH: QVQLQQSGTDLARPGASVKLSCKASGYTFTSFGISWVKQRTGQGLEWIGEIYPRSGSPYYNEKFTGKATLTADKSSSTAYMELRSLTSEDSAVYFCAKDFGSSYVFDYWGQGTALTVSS VL: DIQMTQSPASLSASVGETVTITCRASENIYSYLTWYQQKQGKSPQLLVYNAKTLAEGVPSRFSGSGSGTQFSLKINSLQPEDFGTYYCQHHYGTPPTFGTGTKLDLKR	s⁻¹	0.00173
F4.26.1 (antibody, human IgG1, kappa, V domains shown, human-murine chimeric antibody) VH: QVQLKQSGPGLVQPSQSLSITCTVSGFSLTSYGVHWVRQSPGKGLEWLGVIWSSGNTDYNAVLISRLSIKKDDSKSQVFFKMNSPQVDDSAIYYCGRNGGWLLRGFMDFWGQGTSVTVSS VL: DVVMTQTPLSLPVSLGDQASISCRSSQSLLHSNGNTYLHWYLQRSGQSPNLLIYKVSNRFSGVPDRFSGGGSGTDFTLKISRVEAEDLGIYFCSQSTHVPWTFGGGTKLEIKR	s⁻¹	0.00072

Answer for every listed entry: what is its koff? The entries follow.
1. F1.2.14 (antibody, human IgG1, kappa, V domains shown, human-murine chimeric antibody) VH: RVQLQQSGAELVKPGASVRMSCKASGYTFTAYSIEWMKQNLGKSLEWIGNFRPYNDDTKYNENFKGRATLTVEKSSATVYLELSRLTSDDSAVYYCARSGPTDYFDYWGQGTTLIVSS VL: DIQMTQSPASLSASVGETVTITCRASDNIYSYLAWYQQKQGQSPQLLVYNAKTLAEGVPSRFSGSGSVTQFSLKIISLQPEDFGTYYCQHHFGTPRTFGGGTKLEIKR
2. F1.21.8 (antibody, human IgG1, kappa, V domains shown, human-murine chimeric antibody) VH: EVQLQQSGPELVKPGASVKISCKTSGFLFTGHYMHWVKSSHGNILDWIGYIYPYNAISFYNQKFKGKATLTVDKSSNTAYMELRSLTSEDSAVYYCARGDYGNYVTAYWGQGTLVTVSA VL: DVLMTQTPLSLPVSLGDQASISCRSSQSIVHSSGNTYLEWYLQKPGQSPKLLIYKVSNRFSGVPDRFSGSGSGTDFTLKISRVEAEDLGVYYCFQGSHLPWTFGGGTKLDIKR

0.000147
4.84e-05
